Source of measurements: the supplement of paper PMC10126150

Test system: ATP;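 also: ATP exposure 15 min at 22 °C before imaging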
Assay: switch fluorescence ratio, 500 uM ATP over buffer (Cy3 cluster intensity, sum of 5 cycles each) (fold (ratio)); higher = stronger signal-on switching upon ATP binding; sequences stand for … in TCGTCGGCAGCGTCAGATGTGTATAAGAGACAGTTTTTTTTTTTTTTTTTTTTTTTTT…TC
Conditions: aptamer strand: ATP DNA aptamer (quencher-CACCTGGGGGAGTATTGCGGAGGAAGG + anchor), 100 nM annealed; ATP concentration: 500 uM
measuredEndpoint: switch fluorescence ratio
Form field (numeric): enter value without unit.

Lab note: need switch fluorescence ratio with ATP for entry AAGTTTTATG , please look it up.
1.03

Lab note: need switch fluorescence ratio with ATP for entry GAGCCCTCGG , please look it up.
0.999

Lab note: need switch fluorescence ratio with ATP for entry ACACGTACTT , please look it up.
1.52

Lab note: need switch fluorescence ratio with ATP for entry GGTTTCGCGC , please look it up.
1.01

Lab note: need switch fluorescence ratio with ATP for entry GAGCTTTGAT , please look it up.
0.996

Lab note: need switch fluorescence ratio with ATP for entry GGATTTGGCC , please look it up.
1

Lab note: need switch fluorescence ratio with ATP for entry CATTAGAATC , please look it up.
0.997

Lab note: need switch fluorescence ratio with ATP for entry AGTAGTATCT , please look it up.
0.981

Lab note: need switch fluorescence ratio with ATP for entry TTTTGGGCCT , please look it up.
1.04

Lab note: need switch fluorescence ratio with ATP for entry GAATAATGAT , please look it up.
0.989

Lab note: need switch fluorescence ratio with ATP for entry TTTTAGCGGT , please look it up.
0.974

Lab note: need switch fluorescence ratio with ATP for entry GGTTCATTCT , please look it up.
0.992

Lab note: need switch fluorescence ratio with ATP for entry CAGAGAAAGT , please look it up.
0.973

Lab note: need switch fluorescence ratio with ATP for entry GTTTAATGGA , please look it up.
1.01

Lab note: need switch fluorescence ratio with ATP for entry TGTGATAGGT , please look it up.
1

Lab note: need switch fluorescence ratio with ATP for entry AGAGTATCTA , please look it up.
0.962

Lab note: need switch fluorescence ratio with ATP for entry AACAATTATA , please look it up.
1.01

Lab note: need switch fluorescence ratio with ATP for entry TTTCGGTTGT , please look it up.
1

Lab note: need switch fluorescence ratio with ATP for entry AGGCGGGTAT , please look it up.
1.01

Lab note: need switch fluorescence ratio with ATP for entry GGGATGGGTT , please look it up.
0.989

Lab note: need switch fluorescence ratio with ATP for entry TAATTGTTTT , please look it up.
1

Lab note: need switch fluorescence ratio with ATP for entry GACTAACGGA , please look it up.
1.19

Lab note: need switch fluorescence ratio with ATP for entry ACTTGGATGG , please look it up.
0.995

Lab note: need switch fluorescence ratio with ATP for entry AAGTAGATCC , please look it up.
1.04

Lab note: need switch fluorescence ratio with ATP for entry CAATCATAGT , please look it up.
0.989

Lab note: need switch fluorescence ratio with ATP for entry ATGGAGCGTG , please look it up.
0.994

Lab note: need switch fluorescence ratio with ATP for entry GGCGGAAGAA , please look it up.
1.07

Lab note: need switch fluorescence ratio with ATP for entry TTGAGGTGCA , please look it up.
0.992

Lab note: need switch fluorescence ratio with ATP for entry CGAATATAAA , please look it up.
0.994

Lab note: need switch fluorescence ratio with ATP for entry GGGGTTGTAG , please look it up.
0.993

Lab note: need switch fluorescence ratio with ATP for entry TGGCGGTACG , please look it up.
1.02

Lab note: need switch fluorescence ratio with ATP for entry TGATTAAGCA , please look it up.
0.999

Lab note: need switch fluorescence ratio with ATP for entry AACCATGGGT , please look it up.
1.01

Lab note: need switch fluorescence ratio with ATP for entry AGGATGGTTT , please look it up.
1

Lab note: need switch fluorescence ratio with ATP for entry TTTTTGGGAT , please look it up.
1.01

Lab note: need switch fluorescence ratio with ATP for entry CTGAGGAGAC , please look it up.
1.05

Lab note: need switch fluorescence ratio with ATP for entry ATCGTGTGGT , please look it up.
0.983

Lab note: need switch fluorescence ratio with ATP for entry TAAGTGGTGA , please look it up.
1.04

Lab note: need switch fluorescence ratio with ATP for entry AGTCTAGGGC , please look it up.
1.04

Lab note: need switch fluorescence ratio with ATP for entry TTTTTAGTCG , please look it up.
1

Lab note: need switch fluorescence ratio with ATP for entry TTAAACTGGT , please look it up.
1.04

Lab note: need switch fluorescence ratio with ATP for entry GGCGACCTGG , please look it up.
0.993

Lab note: need switch fluorescence ratio with ATP for entry TGGTAGCTGT , please look it up.
1.01

Lab note: need switch fluorescence ratio with ATP for entry CGGGAATCGT , please look it up.
1

Lab note: need switch fluorescence ratio with ATP for entry AAGTATATTG , please look it up.
0.991

Lab note: need switch fluorescence ratio with ATP for entry GGCGTAATCT , please look it up.
1.04

Lab note: need switch fluorescence ratio with ATP for entry CGAACGCCTG , please look it up.
1.1

Lab note: need switch fluorescence ratio with ATP for entry TTTTGGAAAA , please look it up.
1.02

Lab note: need switch fluorescence ratio with ATP for entry TACGGGGATG , please look it up.
0.996

Lab note: need switch fluorescence ratio with ATP for entry CCTAGGGGGA , please look it up.
1.05

Lab note: need switch fluorescence ratio with ATP for entry CATTTTAGAG , please look it up.
0.983

Lab note: need switch fluorescence ratio with ATP for entry TTAGGATTAA , please look it up.
1.02

Lab note: need switch fluorescence ratio with ATP for entry CCTCAGCAGA , please look it up.
3.75

Lab note: need switch fluorescence ratio with ATP for entry TAGAGGCAGC , please look it up.
0.999

Lab note: need switch fluorescence ratio with ATP for entry GCGAACGGGG , please look it up.
1.01

Lab note: need switch fluorescence ratio with ATP for entry CATAAGATGT , please look it up.
1
